molecular target: furin, P09958; experiment: furin cleavage Z-score vs untreated control; higher = more cleavage, active = 3.5 or more, inactive = 1 or less, 8 variable residues between constant flanks; settings: 15 min;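 also: purified furin at 1:10 enzyme:substrate in 50 mM HEPES pH 7.5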
Sequence (P09958 whole entry): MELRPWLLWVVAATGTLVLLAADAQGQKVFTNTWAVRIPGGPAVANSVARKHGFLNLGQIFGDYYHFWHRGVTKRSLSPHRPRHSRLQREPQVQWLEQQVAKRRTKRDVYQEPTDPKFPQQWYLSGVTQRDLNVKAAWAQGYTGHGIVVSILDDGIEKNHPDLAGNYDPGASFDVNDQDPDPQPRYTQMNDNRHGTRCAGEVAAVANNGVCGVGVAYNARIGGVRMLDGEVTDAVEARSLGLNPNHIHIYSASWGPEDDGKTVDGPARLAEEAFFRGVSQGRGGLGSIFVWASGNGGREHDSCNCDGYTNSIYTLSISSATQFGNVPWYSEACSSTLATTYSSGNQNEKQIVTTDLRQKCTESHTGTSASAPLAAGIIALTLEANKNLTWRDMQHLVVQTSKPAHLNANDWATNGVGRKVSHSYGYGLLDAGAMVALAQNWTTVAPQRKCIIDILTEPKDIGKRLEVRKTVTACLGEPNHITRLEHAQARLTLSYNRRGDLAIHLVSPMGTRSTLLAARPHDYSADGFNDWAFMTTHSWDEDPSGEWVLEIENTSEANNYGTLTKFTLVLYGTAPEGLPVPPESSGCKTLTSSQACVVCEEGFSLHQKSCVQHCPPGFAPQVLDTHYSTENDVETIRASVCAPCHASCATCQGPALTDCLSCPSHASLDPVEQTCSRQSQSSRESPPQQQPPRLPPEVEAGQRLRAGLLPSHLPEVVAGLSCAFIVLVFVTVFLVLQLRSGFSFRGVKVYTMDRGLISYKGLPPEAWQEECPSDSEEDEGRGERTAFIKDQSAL
This is one part of the list. The true hit rate is not given.
Binary classification by furin cleavage Z-score, with 0.05 as an inclusive lower bound for label 1; all other cases are label 0.

Check out these entries, answers already filled in.
macromoleculeSequence: CAARIRVKRYAGNASASA [FS-8]
discreteLabel: label 1
--
macromoleculeSequence: CAFKNRSCRIAGNASASA [FS-768]
discreteLabel: label 1
--
macromoleculeSequence: CAFLEVVTSTAGNASASA [HC2267]
discreteLabel: label 0
--
macromoleculeSequence: CARCRRNKRIAGNASASA [FS-1649]
discreteLabel: label 1
--
macromoleculeSequence: CADHLEFWEGAGNASASA [HC937]
discreteLabel: label 0
--
macromoleculeSequence: CALAALAAYCAGNASASA [HC994]
discreteLabel: label 1
--
macromoleculeSequence: CALAARKRRQAGNASASA [FS-604]
discreteLabel: label 1
--
macromoleculeSequence: CAMHIRRKRIAGNASASA [FS-1235]
discreteLabel: label 1
--
macromoleculeSequence: CAEVPCHSPSAGNASASA [HC2377]
discreteLabel: label 0
--
macromoleculeSequence: CAMEEHSQHLAGNASASA [HC9]
discreteLabel: label 1

Query :: Test whether the sequence CALAERRVRIAGNASASA [FS-265] records furin cleavage Z-score of 0.05 or higher.
Result :: label 1

Query :: Test whether the sequence CADTDVFVLNAGNASASA [HC427] records furin cleavage Z-score of 0.05 or higher.
Result :: label 0

Query :: Test whether the sequence CASYSWTGALAGNASASA [HC1372] records furin cleavage Z-score of 0.05 or higher.
Result :: label 0

Query :: Test whether the sequence CARQPRKQGGAGNASASA [FS-2445] records furin cleavage Z-score of 0.05 or higher.
Result :: label 1
